Data provenance is patent US20220356186A1.

Test system: GFP-eIF2α in HEK293 cells
assay_summary: PERK cellular assay, TR-FRET in HEK293-EGFP-eIF2a cells after tunicamycin-induced ER stress
Type: cell-based
assay_context: HEK293-EGFP-eIF2a cells, tunicamycin 2 hours; read-out: Cellular eIF2α IC50
endpoint_label: IC50

{"compound": "Cc1c(-c2cn(C)c3ncnc(N)c23)ccc(NC(=O)C(O)c2cccc(F)c2)c1F (centres unmarked) [Example 117]", "IC50": "1 to 25 nM"}

Looking up Cc1nc(N)c2c(-c3ccc(NC(=O)C(O)c4cccc(C(F)(F)F)c4)cc3C)cn(C)c2n1 (centres unmarked) [Example 51] , I found its IC50 recorded as 501 to 1000 nM

Looking up Cc1nc(N)c2c(-c3cnc(NC(=O)C(O)c4cccc(C(F)(F)F)c4)cc3C)cn(C)c2n1 (centres unmarked) [Example 132] , I found its IC50 recorded as 51 to 100 nM

Looking up CCc1cccc(C(O)C(=O)Nc2ccc(-c3cn(C)c4nc(C)nc(N)c34)c(F)c2)c1 (centres unmarked) [Example 76] , I found its IC50 recorded as 1 to 25 nM

Looking up Cc1nc(N)c2c(-c3ccc(NC(=O)C(O)c4cccc(Cl)c4)cc3F)cn(C)c2n1 (centres unmarked) [Example 81] , I found its IC50 recorded as 101 to 250 nM

Looking up Cc1nc(N)c2c(-c3ccc(NC(=O)C(O)c4cccc(F)c4)c(F)c3C)cn(C)c2n1 (centres unmarked) [Example 13] , I found its IC50 recorded as 1000 to 2000 nM

Looking up Cc1nc(N)c2c(-c3ccc(NC(=O)C(O)c4cc(F)cc(F)c4)cc3F)cn(C)c2n1 (centres unmarked) [Example 83] , I found its IC50 recorded as 1 to 25 nM

Looking up CCc1cc(F)cc(C(O)C(=O)Nc2ccc(-c3cn(C)c4nc(C)nc(N)c34)c(C)c2)c1 (centres unmarked) [Example 58] , I found its IC50 recorded as 51 to 100 nM
